ASSAYED TARGET: mutant BRAF V600E (Homo sapiens, UniProt P15056, V600E)
Sequence (P15056 whole entry V600E): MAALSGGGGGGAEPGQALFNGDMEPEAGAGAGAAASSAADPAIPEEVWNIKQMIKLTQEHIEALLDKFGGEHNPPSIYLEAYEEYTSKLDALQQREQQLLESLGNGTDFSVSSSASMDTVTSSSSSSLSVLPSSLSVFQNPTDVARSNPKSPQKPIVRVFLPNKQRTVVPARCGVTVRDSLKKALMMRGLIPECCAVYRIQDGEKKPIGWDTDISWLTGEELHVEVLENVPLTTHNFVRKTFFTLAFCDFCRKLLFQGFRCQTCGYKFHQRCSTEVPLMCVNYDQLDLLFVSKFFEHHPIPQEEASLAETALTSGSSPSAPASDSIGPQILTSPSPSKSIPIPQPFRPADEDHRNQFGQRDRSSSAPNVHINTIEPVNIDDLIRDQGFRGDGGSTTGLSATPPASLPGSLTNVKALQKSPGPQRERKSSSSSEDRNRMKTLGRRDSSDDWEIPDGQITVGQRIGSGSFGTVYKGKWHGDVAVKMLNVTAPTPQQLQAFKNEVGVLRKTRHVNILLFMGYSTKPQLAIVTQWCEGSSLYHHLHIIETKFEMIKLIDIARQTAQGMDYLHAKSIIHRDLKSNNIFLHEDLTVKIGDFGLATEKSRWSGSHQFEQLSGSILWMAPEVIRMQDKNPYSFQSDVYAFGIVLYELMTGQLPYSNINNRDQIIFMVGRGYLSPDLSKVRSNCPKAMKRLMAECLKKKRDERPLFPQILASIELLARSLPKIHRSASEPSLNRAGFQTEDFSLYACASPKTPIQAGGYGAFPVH
EXPERIMENT NOTES: BRAF V600E HiBiT Degradation Assay in A375.10 cells
CONDITION NOTES: read-out: HiBIT-Degradation A375.10 BRAF 2 hours Emax
REPORTED METRIC: Emax

compound="CCN(C)S(=O)(=O)Nc1ccc(F)c(Oc2ccc3ncn([C@@H]4COC5(CCN(C(=O)CN6CCC(c7ccc(OC8CCC(=O)NC8=O)cc7OS(=O)(=O)F)CC6)CC5)C4)c(=O)c3c2)c1C#N (some centres unmarked) [drawing 1201]" reported_measurement="60 to 95%"
compound="CCN(C)S(=O)(=O)Nc1ccc(F)c(Oc2ccc3ncn([C@@H]4COC5(CCN(C(=O)CN6CCC(c7ccc(N8CCC(=O)NC8=O)cc7OS(C)(=O)=O)CC6)CC5)C4)c(=O)c3c2)c1C#N [drawing 1203]" reported_measurement="< 60%"
compound="CCN(C)S(=O)(=O)Nc1ccc(F)c(Oc2ccc3ncn([C@H]4COC5(CCN(C(=O)CN6CCC(c7ccc(OC8CCC(=O)NC8=O)cc7S(=O)(=O)F)CC6)CC5)C4)c(=O)c3c2)c1C#N (some centres unmarked) [drawing 1200]" reported_measurement="60 to 95%"
compound="CCN(C)S(=O)(=O)Nc1ccc(F)c(Oc2ccc3ncn([C@H]4COC5(CCN(C(=O)CN6CCC(c7ccc(NC8CCC(=O)NC8=O)cc7OS(C)(=O)=O)CC6)CC5)C4)c(=O)c3c2)c1C#N (some centres unmarked) [drawing 1202]" reported_measurement="< 60%"
compound="CCN(C)S(=O)(=O)Nc1ccc(F)c(Oc2ccc3ncn([C@@H]4COC5(CCN(C(=O)CN6CCC(c7ccc(N8CCC(=O)NC8=O)cc7OS(=O)(=O)F)CC6)CC5)C4)c(=O)c3c2)c1C#N [drawing 1192]" reported_measurement="> 95%"
compound="CCN(C)S(=O)(=O)Nc1ccc(F)c(Oc2ccc3ncn([C@H]4COC5(CCN(C(=O)CN6CCN(c7ccc(C8CCC(=O)NC8=O)cc7OS(=O)(=O)F)CC6)CC5)C4)c(=O)c3c2)c1C#N (some centres unmarked) [drawing 1191]" reported_measurement="< 60%"
compound="CCN(C)S(=O)(=O)Nc1ccc(F)c(Oc2ccc3ncn([C@@H]4COC5(CCN(C(=O)CN6CCC(c7ccc(C8CCC(=O)NC8=O)cc7OS(=O)(=O)F)CC6)CC5)C4)c(=O)c3c2)c1C#N (some centres unmarked) [drawing 1189]" reported_measurement="60 to 95%"
compound="CCN(C)S(=O)(=O)Nc1ccc(F)c(Oc2ccc3ncn([C@H]4COC5(CCN(C(=O)CN6CCN(c7ccc(N8CCC(=O)NC8=O)cc7OS(=O)(=O)F)CC6)CC5)C4)c(=O)c3c2)c1C#N [drawing 1194]" reported_measurement="> 95%"
compound="CCN(C)S(=O)(=O)Nc1ccc(F)c(Oc2ccc3ncn([C@@H]4COC5(CCN(C(=O)CN6CCC(c7ccc(NC8CCC(=O)NC8=O)cc7OS(C)(=O)=O)CC6)CC5)C4)c(=O)c3c2)c1C#N (some centres unmarked) [drawing 1208]" reported_measurement="60 to 95%"
compound="CCN(C)S(=O)(=O)Nc1ccc(F)c(Oc2ccc3ncn([C@H]4COC5(CCN(C(=O)CN6CCC(c7ccc(OC8CCC(=O)NC8=O)cc7OS(=O)(=O)F)CC6)CC5)C4)c(=O)c3c2)c1C#N (some centres unmarked) [drawing 1196]" reported_measurement="< 60%"
compound="CCN(C)S(=O)(=O)Nc1ccc(F)c(Oc2ccc3ncn([C@@H]4COC5(CCN(C(=O)CN6CCN(c7ccc(N8CCC(=O)NC8=O)cc7OS(=O)(=O)F)CC6)CC5)C4)c(=O)c3c2)c1C#N [drawing 1195]" reported_measurement="60 to 95%"
